Biological target: rNaGLT1 (Rattus norvegicus, UniProt Q80T22, M166I/S3F)
Construct: expressed in transfected cells; host or cells: HEK293 cells, transient transfection, assayed 2 days later
Sequence (Q80T22 1-484 S3F/M166I): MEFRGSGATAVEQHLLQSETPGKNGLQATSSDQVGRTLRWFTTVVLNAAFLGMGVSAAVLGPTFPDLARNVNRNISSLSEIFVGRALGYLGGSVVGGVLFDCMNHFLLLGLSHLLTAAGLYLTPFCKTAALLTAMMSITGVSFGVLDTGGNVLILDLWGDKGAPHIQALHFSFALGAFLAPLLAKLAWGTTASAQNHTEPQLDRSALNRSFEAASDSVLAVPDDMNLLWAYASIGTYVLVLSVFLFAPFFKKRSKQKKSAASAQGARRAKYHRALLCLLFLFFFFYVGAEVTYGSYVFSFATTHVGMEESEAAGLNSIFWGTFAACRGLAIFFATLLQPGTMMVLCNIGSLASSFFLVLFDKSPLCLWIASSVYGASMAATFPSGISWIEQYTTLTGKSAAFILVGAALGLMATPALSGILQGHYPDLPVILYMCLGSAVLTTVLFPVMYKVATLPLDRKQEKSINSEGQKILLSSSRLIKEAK
Test: Uptake of [14C] fructose by HEK293 cells transfected with rNaGLT1
Assay type: cell-based
Settings: [14C] fructose 0.1 mM, 15 minutes at 37° C.; glucose analog 30 mM, phloridzin or phloretin 50 μM
REPORTED ENDPOINT: Uptake of [14C] fructose by HEK293 cells expressing rNaGLT1, % of control

1. O=C(CCc1ccc(O)cc1)c1c(O)cc(O)cc1O[C@@H]1O[C@H](CO)[C@@H](O)[C@H](O)[C@H]1O ... 12 % of control
2. OC[C@H]1O[C@H](CO)[C@@H](O)[C@@H]1O ... 40 % of control
3. O=CC[C@@H](O)[C@H](O)[C@H](O)CO ... 70 % of control
4. OC[C@H]1O[C@@](CO)(O[C@H]2O[C@H](CO)[C@@H](O)[C@H](O)[C@H]2O)[C@@H](O)[C@@H]1O ... 144 % of control
5. CO[C@@H]([C@H](O)[C@H](O)CO)[C@@H](O)C=O ... 89 % of control
6. CO[C@H]1O[C@H](CO)[C@@H](O)[C@H](O)[C@H]1O [αMeGlc, α-methyl-D-glucopyranoside] ... 42 % of control
7. O=C(CCc1ccc(O)cc1)c1c(O)cc(O)cc1O ... 33 % of control
8. O=C(CO)[C@@H](O)[C@H](O)[C@H](O)CO ... 8 % of control
9. O=C[C@H](O)[C@@H](O)[C@@H](O)[C@H](O)CO ... 99 % of control
